test system: T1, recombinant TNFα, biotinylated (human, UniProt P01375 77-233, biotinylated using sulfo-NHS-LC-Biotin (sites not given))
T1 construct: human is stated in the abstract and claims; also called biotinylated TNFα; human TNFα
T1 sequence (P01375 77-233 limits assumed): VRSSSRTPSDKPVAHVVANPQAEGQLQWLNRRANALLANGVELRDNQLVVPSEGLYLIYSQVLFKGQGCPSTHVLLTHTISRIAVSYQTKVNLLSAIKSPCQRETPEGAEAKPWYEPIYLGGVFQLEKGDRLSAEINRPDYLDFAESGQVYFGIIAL
assay: ELISA of lysates on biotinylated TNFα on streptavidin plate
measurement label: binding result

Problem: Which binding result is listed for Clone No. 83 (designed binder, F:G DVTEVYM) LPAPKNLVVSEVTEDSLRLSWTAPDAAFDSFLIQYQESEKVGEAINLTVPGSERSYDLTGLKPGTEYTVSIYGVDVTEVYMPLSAEFTT ?
Result: binds

Problem: Which binding result is listed for Clone No. 73 (designed binder, F:G PWRYGLH) LPAPKNLVVSEVTEDSLRLSWTAPDAAFDSFLIQYQESEKVGEAINLTVPGSERSYDLTGLKPGTEYTVSIYGVPWRYGLHPLSAEFTT ?
Result: binds

Problem: State the recorded binding result for this entry: Clone No. 34 (designed binder, F:G GGLTVLH) LPAPKNLVVSEVTEDSLRLSWTAPDAAFDSFLIQYQESEKVGEAINLTVPGSERSYDLTGLKPGTEYTVSIYGVGGLTVLHPLSAEFTT
Result: binds

Where these numbers come from: patent US20100144601A1
